Entries below carry reported IC50 on UniProt:P00521.
Sequence (P00521 115-385): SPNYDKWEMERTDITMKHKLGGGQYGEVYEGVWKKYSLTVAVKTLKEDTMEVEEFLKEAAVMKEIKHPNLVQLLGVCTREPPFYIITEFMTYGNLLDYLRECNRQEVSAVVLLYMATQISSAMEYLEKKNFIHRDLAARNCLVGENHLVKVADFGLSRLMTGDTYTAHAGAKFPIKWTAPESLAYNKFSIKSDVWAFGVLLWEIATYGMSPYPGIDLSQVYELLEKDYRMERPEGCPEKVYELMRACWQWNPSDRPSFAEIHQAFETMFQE
Experimental Endpoint: IC50

>>> value_measured("COc1ccc(Nc2[nH]nc3c2Cc2cc(F)ccc2-3)cc1OC [Compound 205]")
"328 nM"
>>> value_measured("CCOc1cc2c(cc1OCCCO)Cc1c-2n[nH]c1Nc1cccc(F)c1 [Compound 382]")
"19 nM"
>>> value_measured("COc1cc2c(cc1OC)-c1n[nH]c(Nc3cc(F)cc(F)c3)c1C2 [Compound 207]")
"62 nM"
>>> value_measured("COc1cccc(Nc2[nH]nc3c2Cc2cc(OCCCN4CCCC4)c(OC)cc2-3)c1 [Compound 156]")
"89 nM"
>>> value_measured("COc1cccc(Nc2[nH]nc3c2Cc2cc(OCCCO)c(OCCCO)cc2-3)c1 [Compound 400]")
"5 nM"
>>> value_measured("COc1cc2c(cc1OCCCO)Cc1c-2n[nH]c1Nc1ccc(F)c(Cl)c1 [Compound 267]")
"326 nM"
>>> value_measured("COc1cc2c(cc1OC)-c1n[nH]c(Nc3cccc(C(N)=O)c3)c1C2 [Compound 116]")
"386 nM"
>>> value_measured("Fc1cccc(Nc2[nH]nc3c2Cc2ccc(F)cc2-3)c1 [Compound 334]")
"3300 nM"
>>> value_measured("COc1cc2c(cc1OC)-c1n[nH]c(Nc3cccc(CO)c3)c1C2 [Compound 36]")
"64 nM"
>>> value_measured("CCCC(=O)OCn1nc(Nc2cccc(F)c2)c2c1-c1cc(OC)c(OC)cc1C2 [Compound 490]")
"38 nM"
>>> value_measured("Fc1ccc2c(c1)-c1n[nH]c(Nc3ccccc3)c1C2 [Compound 299]")
"198 nM"
>>> value_measured("COc1cc2c(cc1OC)-c1n[nH]c(Nc3cccc(OCc4ccccc4)c3)c1C2 [Compound 54]")
"971 nM"
>>> value_measured("CCc1cccc(Nc2[nH]nc3c2Cc2cc(OC)c(OC)cc2-3)c1 [Compound 209]")
"7 nM"
>>> value_measured("COc1cc2c(cc1Br)Cc1c-2n[nH]c1Nc1cccc(F)c1 [Compound 369]")
"47 nM"
